- TARGET: UniProt:Q96KS0
- Sequence (Q96KS0 whole entry): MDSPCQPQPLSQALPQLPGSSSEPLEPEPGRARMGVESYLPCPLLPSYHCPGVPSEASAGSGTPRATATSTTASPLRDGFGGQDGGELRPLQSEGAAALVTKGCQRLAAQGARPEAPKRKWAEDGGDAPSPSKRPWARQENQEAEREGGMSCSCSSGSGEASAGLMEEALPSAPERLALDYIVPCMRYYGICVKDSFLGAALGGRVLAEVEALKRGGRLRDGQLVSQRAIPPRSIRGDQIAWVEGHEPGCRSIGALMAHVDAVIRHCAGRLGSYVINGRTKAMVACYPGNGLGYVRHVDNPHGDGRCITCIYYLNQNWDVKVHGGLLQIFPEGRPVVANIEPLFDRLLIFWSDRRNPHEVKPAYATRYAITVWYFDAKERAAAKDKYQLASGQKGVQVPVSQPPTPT
- PROCEDURE DETAILS: HIF-PH assay (14CO2 capture), PHD1 enzyme inhibition
- Assay type: biochemical
- CONDITION DESCRIPTION: Table 1; ratio of the IC50 of the compound for each enzyme
REPORTED METRIC: PHD2/PHD1

Record excerpt, results attached:
COC(=O)N[C@H](CCNC(=O)c1nc(C#N)c2cc(Oc3ccccc3)ccc2c1O)C(=O)O [Compound 53]
5.8
N#Cc1nc(C(=O)NCCCC(=O)O)c(O)c2ccc(Oc3ccccc3)cc12 [Compound 80]
5
CC(C)(CNC(=O)c1ncc2cc(Oc3ccc(Cl)c(F)c3)ccc2c1O)C(=O)O [Compound 23]
5

(a) CC(C)(CNC(=O)c1nc(C#N)c2cc(OC3CCCCC3)ccc2c1O)C(=O)O [Compound 156]
(b) O=C(O)CCNC(=O)c1ncc2cc(NC(=O)NCc3ccccc3)ccc2c1O [Compound 133]
a or b : whose PHD2/PHD1 is greater? Answer with the label corresponding to your selection. a
(a: 16, b: 7)

(A) N#Cc1nc(C(=O)NCC2(C(=O)O)CCOCC2)c(O)c2ccc(Oc3ccccc3)cc12 [Compound 16]
(B) Cc1nc(C(=O)NCCC(=O)O)c(O)c2ccc(Oc3ccccc3)cc12 [Compound 108]
Could you kindly indicate whether A or B has the higher PHD2/PHD1 value? Your answer should be the label attached to the chosen record. A
(A: 13, B: 7)
